- TARGET_UNDER_TEST: Protein farnesyltransferase (Mus musculus, UniProt Q61239+Q8K2I1)
- MEASUREMENT_PROTOCOL: Inhibition of H-Ras transformed NIH-3T3-cell proliferation
- CONDITION_DETAILS: nih3t3
ENDPOINT: EC50 (nM)

P: N#Cc1ccc(Cn2cncc2COCc2ccc(C#N)cc2-c2cccc(Cl)c2)cc1
Q: N#Cc1ccc(Cn2cncc2COCc2ccc(C#N)cc2-c2ccc(OC(F)(F)F)cc2)cc1
[Q] Just curious, which one has the larger EC50 reading, P or Q ? API: response body contains the label of the selected item.
[A] Q

###

- TARGET_UNDER_TEST: Protein farnesyltransferase (Bos taurus, UniProt P29702+P49355)
- MEASUREMENT_PROTOCOL: Inhibition of bovine farnesyltransferase
ENDPOINT: IC50 (nM)

{"MOLECULAR_STRING": "N#Cc1ccc(Cn2cncc2COc2ccc(Cl)cc2-c2cccc(Cl)c2)cc1", "TARGET_UNDER_TEST": "Protein farnesyltransferase (Bos taurus, UniProt P29702+P49355)", "IC50, nM": 4}
{"MOLECULAR_STRING": "N#Cc1ccc(Cn2cncc2COCc2ccc(C#N)cc2-c2cccc3ccccc23)cc1", "TARGET_UNDER_TEST": "Protein farnesyltransferase (Bos taurus, UniProt P29702+P49355)", "IC50, nM": 1.3}
{"MOLECULAR_STRING": "N#Cc1ccc(Cn2cncc2COCc2ccc(C#N)cc2-c2cccc(Cl)c2)cc1", "TARGET_UNDER_TEST": "Protein farnesyltransferase (Bos taurus, UniProt P29702+P49355)", "IC50, nM": 0.37}
{"MOLECULAR_STRING": "N#Cc1ccc(Cn2cncc2COCc2ccc(C#N)cc2-c2ccc(Cl)c(Cl)c2)cc1", "TARGET_UNDER_TEST": "Protein farnesyltransferase (Bos taurus, UniProt P29702+P49355)", "IC50, nM": 0.37}
{"MOLECULAR_STRING": "COc1cccc(-c2cc(C#N)ccc2COCc2cncn2Cc2ccc(C#N)nc2)c1", "TARGET_UNDER_TEST": "Protein farnesyltransferase (Bos taurus, UniProt P29702+P49355)", "IC50, nM": 1.5}
{"MOLECULAR_STRING": "N#Cc1ccc(Cn2cncc2COCc2ccc(Cl)cc2-c2cccc(Cl)c2)cc1", "TARGET_UNDER_TEST": "Protein farnesyltransferase (Bos taurus, UniProt P29702+P49355)", "IC50, nM": 0.62}
{"MOLECULAR_STRING": "Cc1ccc(-c2cc(C#N)ccc2COCc2cncn2Cc2ccc(C#N)cc2)cc1C", "TARGET_UNDER_TEST": "Protein farnesyltransferase (Bos taurus, UniProt P29702+P49355)", "IC50, nM": 0.6}

1: CS(=O)(=O)c1ccc(Cn2cncc2COCc2ccc(C#N)cc2-c2cccc(Cl)c2)cc1
2: N#Cc1ccc(OCc2cncn2Cc2ccc(C#N)c(-c3cccc4ccccc34)c2)nc1
3: COc1ccc(-c2cc(C#N)ccc2COCc2cncn2Cc2ccc(C#N)cc2)cn1
[Q] Would you mind ranking these compounds by ascending IC50? Provide the ranking by listing each label in its place in the requested order.
[A] 2, 3, 1
(2: 0.9 nM, 3: 7.6 nM, 1: 96 nM)

###

- TARGET_UNDER_TEST: Geranylgeranyl transferase type I (Bos taurus, UniProt P29702+Q5EAD5)
- MEASUREMENT_PROTOCOL: Inhibition of bovine Geranylgeranyltransferase
ENDPOINT: IC50 (nM)

Here's what some known entries look like.
{"MOLECULAR_STRING": "N#Cc1ccc(OCc2cncn2Cc2ccc(C#N)c(-c3cccc4ccccc34)c2)nc1", "RESULT_UNITS": "nM", "EXPERIMENTAL_VALUE": 420}
{"MOLECULAR_STRING": "N#Cc1ccc(Cn2cncc2COCc2ccc(C#N)cc2-c2ccc3c(c2)OCO3)nc1", "RESULT_UNITS": "nM", "EXPERIMENTAL_VALUE": 5500}
{"MOLECULAR_STRING": "N#Cc1ccc(Cn2cncc2COc2ccc(C#N)c(-c3cccc4ccccc34)c2)cc1", "RESULT_UNITS": "nM", "EXPERIMENTAL_VALUE": 240}

P: N#Cc1ccc(Cn2cncc2COCc2ccc(C#N)cc2-c2cccc(Cl)c2)cc1
Q: N#Cc1ccc(Cn2cncc2COCc2ccc(C#N)cc2-c2ccc(OC(F)(F)F)cc2)cc1
R: CCOc1ccc(-c2cc(C#N)ccc2COCc2cncn2Cc2ccc(C#N)cc2)cc1
S: N#Cc1ccc(Cn2cncc2COCc2ccc(C#N)cc2-c2ccc(Cl)c(Cl)c2)cc1
[Q] Would you mind ranking these compounds by ascending IC50? Provide the ranking by listing each label in its place in the requested order.
[A] S, Q, R, P

a: N#Cc1ccc(Cn2cncc2COCc2ccc(C#N)cc2-c2ccc(C(F)(F)F)cc2)cc1
b: N#Cc1ccc(COCc2cncn2Cc2ccc(C#N)cc2-c2cccc3ccccc23)c(-c2ccc3c(c2)OCO3)c1
c: CC(C)(C)c1ccc(-c2cc(C#N)ccc2COCc2cncn2Cc2ccc(C#N)cc2)cc1
d: N#Cc1ccc(Cn2cncc2COCc2ccc(C#N)cc2-c2cccc(Cl)c2)nc1
e: N#Cc1ccc(OCc2cncn2Cc2ccc(C#N)c(-c3cccc4ccccc34)c2)cc1
[Q] Would you mind ranking these compounds by ascending IC50? Provide the ranking by listing each label in its place in the requested order.
[A] e, c, b, d, a

I: N#Cc1ccc(Cn2cncc2COCc2cnc(C#N)cc2-c2cccc(Cl)c2)cc1
II: N#Cc1ccc(Cn2cncc2COCc2ccc(C#N)cc2-c2ccc3ccccc3c2)cc1
III: N#Cc1ccc(COCc2cncn2Cc2ccc(C#N)cc2-c2cccc(Cl)c2)c(-c2cccc(Cl)c2)c1
IV: N#Cc1ccc(Cn2cncc2COc2ccc(Cl)cc2-c2cccc(Cl)c2)cc1
V: N#Cc1ccc(Cn2cncc2COCc2ccc(Cl)cc2-c2cccc(Cl)c2)cc1
[Q] Would you mind ranking these compounds by ascending IC50? Provide the ranking by listing each label in its place in the requested order.
[A] III, I, IV, II, V
(III: 87 nM, I: 810 nM, IV: 1800 nM, II: 3400 nM, V: 8200 nM)

P: N#Cc1ccc(Cn2cncc2COCc2ccc(C#N)cc2-c2cccc(OC(F)(F)F)c2)cc1
Q: N#Cc1ccc(Cn2cncc2COCc2ccc(C#N)cc2-c2cccc3ccccc23)cc1
R: N#Cc1ccc(Cn2cncc2CNCc2ccc(C#N)c(-c3cccc4ccccc34)c2)cc1
[Q] Ranking field: IC50; order: falling. Provide the ranking by listing each label in its place in the requested order.
[A] Q, P, R
(Q: 2300 nM, P: 990 nM, R: 220 nM)

###

- TARGET_UNDER_TEST: Protein farnesyltransferase (Mus musculus) (UniProt Q61239+Q8K2I1)
- MEASUREMENT_PROTOCOL: Percent inhibition of H-Ras transformed NIH-3T3-cell proliferation at 100 nM
- Format: functional, cell-based
- CONDITION_DETAILS: NIH3T3
ENDPOINT: inhibition (%)

Here's what some known entries look like.
{"MOLECULAR_STRING": "N#Cc1ccc(Cn2cncc2COc2ccc(Cl)cc2-c2cccc(Cl)c2)cc1", "TARGET_UNDER_TEST": "Protein farnesyltransferase (Mus musculus) (UniProt Q61239+Q8K2I1)", "inhibition (%)": 0}
{"MOLECULAR_STRING": "COc1cccc(-c2cc(C#N)ccc2COCc2cncn2Cc2ccc(C#N)cn2)c1", "TARGET_UNDER_TEST": "Protein farnesyltransferase (Mus musculus) (UniProt Q61239+Q8K2I1)", "inhibition (%)": 49}
{"MOLECULAR_STRING": "CC(C)(C)c1ccc(-c2cc(C#N)ccc2COCc2cncn2Cc2ccc(C#N)cc2)cc1", "TARGET_UNDER_TEST": "Protein farnesyltransferase (Mus musculus) (UniProt Q61239+Q8K2I1)", "inhibition (%)": 49}
{"MOLECULAR_STRING": "N#Cc1ccc(Cn2cncc2COCc2ccc(C#N)c(-c3cccc4ccccc34)c2)cc1", "TARGET_UNDER_TEST": "Protein farnesyltransferase (Mus musculus) (UniProt Q61239+Q8K2I1)", "inhibition (%)": 5}
{"MOLECULAR_STRING": "N#Cc1ccc(COCc2cncn2Cc2ccc(C#N)nc2)c(-c2cccc(Cl)c2)c1", "TARGET_UNDER_TEST": "Protein farnesyltransferase (Mus musculus) (UniProt Q61239+Q8K2I1)", "inhibition (%)": 43}
{"MOLECULAR_STRING": "N#Cc1ccc(Cn2cncc2CNCc2ccc(C#N)c(-c3cccc4ccccc34)c2)cc1", "TARGET_UNDER_TEST": "Protein farnesyltransferase (Mus musculus) (UniProt Q61239+Q8K2I1)", "inhibition (%)": 5}

A: CC(=O)Nc1cccc(-c2cc(C#N)ccc2COCc2cncn2Cc2ccc(C#N)cc2)c1
B: N#Cc1ccc(COCc2cncn2Cc2ccc(C#N)cc2-c2cccc(Cl)c2)c(-c2cccc(Cl)c2)c1
[Q] Just curious, which one has the larger inhibition reading, A or B ? API: response body contains the label of the selected item.
[A] A
(A: 92%, B: 0%)
